Data provenance is patent US9718825B2.

Tested on: SGK-1 dependent phosphorylation of GSK3beta in U2OS cells
Experiment: SGK-1 dependent phosphorylation of GSK3beta in U2OS cells overexpressing recombinant SGK-1 and GSK3beta
Format: cell-based, human
Conditions: U2OS cells, 6 h incubation, ratio of phosphorylated GSK3beta to total GSK3beta; read-out: IC50 values for inhibition of SGK-1 dependent phosphorylation of GSK3beta in U2OS cells
pIC50: −log10 of the molar value.
Listing: pIC50 of selected compounds
attributeMeasured: pIC50

compound="Cc1n[nH]c2nc(-c3ccc(NS(=O)(=O)c4cc(F)ccc4F)cc3)nc(OC3CCNCC3F)c12 (stereo not drawn)" recordedresult=7.22
compound=Cc1ccc(F)c(S(=O)(=O)Nc2ccc(-c3nc(OCCCN)c4c(C)n[nH]c4n3)cc2)c1 recordedresult=6.85
compound="Cc1ccc(C#N)c(S(=O)(=O)Nc2ccc(-c3nc(OC4CCNCC4F)c4c(C)n[nH]c4n3)cc2)c1 (stereo not drawn)" recordedresult=7.04
compound="O=S(=O)(Nc1ccc(-c2nc(OCC3CNCCO3)c3cn[nH]c3n2)cc1)c1cc(Cl)ccc1Cl (stereo not drawn)" recordedresult=6.89
compound=Cc1ccc(C#N)cc1S(=O)(=O)Nc1ccc(-c2nc(C)c3c(N)n[nH]c3n2)cc1 recordedresult=5.09
compound=COc1nc(-c2ccc(NS(=O)(=O)c3cc(Cl)ccc3Cl)cc2)nc2[nH]ncc12 recordedresult=5.26
compound=COc1nc(-c2ccc(NS(=O)(=O)c3cc(Cl)ccc3F)cc2)nc2[nH]ncc12 recordedresult=5.77
compound=COc1ccc(Cl)c(S(=O)(=O)Nc2ccc(-c3nc(OCCC(N)=O)c4cn[nH]c4n3)cc2)c1 recordedresult=5.17
compound=COc1ccc(F)c(S(=O)(=O)Nc2ccc(-c3nc(OCC(F)(F)F)c4c(N)n[nH]c4n3)cc2)c1 recordedresult=7.19
compound=Cc1nc(-c2ccc(NS(=O)(=O)c3cccc(Cl)c3F)cc2)nc2[nH]nc(N)c12 recordedresult=6.06
compound="Cc1n[nH]c2nc(-c3ccc(NS(=O)(=O)c4cc(F)ccc4F)cc3)nc(OC3CCCNC3)c12 (stereo not drawn)" recordedresult=7.42
compound=Cc1ccc(F)c(S(=O)(=O)Nc2ccc(-c3nc(N4CC(CO)C4)c4cn[nH]c4n3)cc2)c1 recordedresult=5.34

* * *

Tested on: SGK-1 dependent phosphorylation of GSK3beta in U2OS cells
Assay: SGK-1 dependent phosphorylation of GSK3beta in U2OS cells overexpressing recombinant SGK-1 and GSK3beta
Format: cell-based, human
Details: U2OS cells, 6 h incubation, ratio of phosphorylated GSK3beta to total GSK3beta; read-out: IC50 values for inhibition of SGK-1 dependent phosphorylation of GSK3beta in U2OS cells
Listing: IC50 of selected compounds
attributeMeasured: IC50 (nM)

compound="O=S(=O)(Nc1ccc(-c2nc(N3CCNCC3)c3cn[nH]c3n2)cc1)c1cc(Cl)ccc1F [Example 16]" unitname=nM recordedresult=950
compound="Cc1ccc(C#N)c(S(=O)(=O)Nc2ccc(-c3nc(OCC4CNC(=O)C4)c4cn[nH]c4n3)cc2)c1 (stereo not drawn) [Example 125]" unitname=nM recordedresult=12000
compound="NCCCOc1nc(-c2ccc(NS(=O)(=O)c3cc(Cl)ccc3F)cc2)nc2[nH]ncc12 [Example 62]" unitname=nM recordedresult=450
compound="Nc1n[nH]c2nc(-c3ccc(NS(=O)(=O)c4cc(Cl)ccc4Cl)cc3)nc(OCC(F)(F)F)c12 [Example 195]" unitname=nM recordedresult=210
compound="N#Cc1ccc(Cl)cc1S(=O)(=O)Nc1ccc(-c2nc(OCC(F)(F)F)c3c(N)n[nH]c3n2)cc1 [Example 196]" unitname=nM recordedresult=330
compound="Cc1ccc(C#N)c(S(=O)(=O)Nc2ccc(-c3ncc4c(N)n[nH]c4n3)cc2)c1 [Example 453]" unitname=nM recordedresult=2100
compound="COc1ccc(Cl)c(S(=O)(=O)Nc2ccc(-c3nc(C)c4c(N)n[nH]c4n3)cc2)c1 [Example 467]" unitname=nM recordedresult=150
compound="CC(C)COc1nc(-c2ccc(NS(=O)(=O)c3ccccc3Cl)cc2)nc2[nH]nc(N)c12 [Example 316]" unitname=nM recordedresult=270
compound="Cc1ccc(C#N)c(S(=O)(=O)Nc2ccc(-c3nc(C4CC4)c4cn[nH]c4n3)cc2)c1 [Example 145]" unitname=nM recordedresult=350
compound="Nc1n[nH]c2cc(-c3ccc(NS(=O)(=O)c4cc(Cl)ccc4F)cc3)ncc12 [Example 559]" unitname=nM recordedresult=390
compound="O=S(=O)(Nc1ccc(-c2nc(N[C@H]3CC[C@@H](O)CC3)c3cn[nH]c3n2)cc1)c1cc(Cl)ccc1Cl [Example 78]" unitname=nM recordedresult=2600
compound="Cc1nc(-c2ccc(NS(=O)(=O)c3cc(Cl)ccc3Cl)cc2)nc2[nH]ncc12 [Example 76]" unitname=nM recordedresult=3000
compound="Cc1ccc(F)c(S(=O)(=O)Nc2ccc(-c3nc(OCCCC(N)=O)c4cn[nH]c4n3)cc2)c1 [Example 112]" unitname=nM recordedresult=3900
compound="Cc1n[nH]c2nc(-c3ccc(NS(=O)(=O)c4cc(F)ccc4F)cc3)nc(OCC3CNCCO3)c12 (stereo not drawn) [Example 292]" unitname=nM recordedresult=930
compound="O=S(=O)(Nc1ccc(-c2nc(OCC3CNCCO3)c3cn[nH]c3n2)cc1)c1cc(Cl)ccc1F (stereo not drawn) [Example 305]" unitname=nM recordedresult=89
compound="COc1ccc(F)c(S(=O)(=O)Nc2ccc(-c3nc(OC4CCC(O)CC4)c4cn[nH]c4n3)cc2)c1 (stereo not drawn) [Example 133]" unitname=nM recordedresult=260
compound="Nc1n[nH]c2cc(-c3ccc(NS(=O)(=O)c4cc(Cl)sc4Cl)cc3)ncc12 [Example 558]" unitname=nM recordedresult=520
compound="Cc1n[nH]c2nc(-c3ccc(NS(=O)(=O)c4cc(Cl)ccc4Cl)cc3)nc(OC3CCC(O)CC3)c12 (stereo not drawn) [Example 214]" unitname=nM recordedresult=130
compound="Cc1ccc(C#N)c(S(=O)(=O)Nc2ccc(-c3nc(OC4CCCNC4)c4c(C)n[nH]c4n3)cc2)c1 (stereo not drawn) [Example 320]" unitname=nM recordedresult=57
compound="Cc1n[nH]c2nc(-c3ccc(NS(=O)(=O)c4cc(Cl)ccc4C#N)cc3)nc(OCCCN)c12 [Example 220]" unitname=nM recordedresult=170
compound="Cc1nc(-c2ccc(NS(=O)(=O)c3cc(Cl)ccc3Cl)cc2)nc2[nH]nc(N3CCC4(CC3)COC4)c12 [Example 496]" unitname=nM recordedresult=7000
compound="COc1ccc(Cl)c(S(=O)(=O)Nc2ccc(-c3nc(OC4CCC(O)CC4)c4cn[nH]c4n3)cc2)c1 (stereo not drawn) [Example 90]" unitname=nM recordedresult=200
compound="COc1ccc(Cl)c(S(=O)(=O)Nc2ccc(-c3nc(OC4CCN(CCF)CC4)c4c(C)n[nH]c4n3)cc2)c1 [Example 341]" unitname=nM recordedresult=63
compound="COc1ccc(Cl)c(S(=O)(=O)Nc2ccc(-c3nc(OCC(F)(F)F)c4c(N)n[nH]c4n3)cc2)c1 [Example 194]" unitname=nM recordedresult=100
compound="Cc1n[nH]c2nc(-c3ccc(NS(=O)(=O)c4cc(Cl)ccc4F)cc3)nc(OCCCN)c12 [Example 209]" unitname=nM recordedresult=100
compound="Cc1ccc(C#N)c(S(=O)(=O)Nc2ccc(-c3nc(OCCCN)c4c(C)n[nH]c4n3)cc2)c1 [Example 213]" unitname=nM recordedresult=190
compound="COc1ccc(F)c(S(=O)(=O)Nc2ccc(-c3nc(OC)c4cn[nH]c4n3)cc2)c1 [Example 144]" unitname=nM recordedresult=55
compound="Cc1ccc(F)c(S(=O)(=O)Nc2ccc(-c3nc(OC4CCC(O)CC4)c4cn[nH]c4n3)cc2)c1 (stereo not drawn) [Example 92]" unitname=nM recordedresult=180
compound="Cc1ccc(F)c(S(=O)(=O)Nc2ccc(-c3nc(OC4CCC(O)CC4)c4c(C)n[nH]c4n3)cc2)c1 (stereo not drawn) [Example 101]" unitname=nM recordedresult=430
compound="CC(C)COc1nc(-c2ccc(NS(=O)(=O)c3cc(Cl)sc3Cl)cc2)nc2[nH]nc(N)c12 [Example 330]" unitname=nM recordedresult=230

* * *

Molecular target: recombinant human SGK-1 enzyme (Homo sapiens, UniProt O00141)
Sequence (O00141 whole entry, looked up): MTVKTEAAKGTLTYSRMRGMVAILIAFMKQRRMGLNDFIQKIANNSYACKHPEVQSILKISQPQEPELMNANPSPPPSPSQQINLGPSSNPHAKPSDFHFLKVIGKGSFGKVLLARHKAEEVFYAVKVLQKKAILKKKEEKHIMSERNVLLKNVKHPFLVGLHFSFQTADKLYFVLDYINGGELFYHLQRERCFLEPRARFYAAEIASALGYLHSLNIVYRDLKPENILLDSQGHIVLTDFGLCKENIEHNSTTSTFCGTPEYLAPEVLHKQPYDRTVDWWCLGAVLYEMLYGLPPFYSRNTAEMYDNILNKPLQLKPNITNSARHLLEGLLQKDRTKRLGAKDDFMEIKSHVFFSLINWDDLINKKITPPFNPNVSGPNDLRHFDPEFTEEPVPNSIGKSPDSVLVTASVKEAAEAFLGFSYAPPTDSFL
Assay: Enzymatic activity assay: SGK-1 substrate peptide phosphorylation (Caliper lab-chip mobility shift)
Type: biochemical
Conditions: peptide substrate 1 μM, ATP 10 μM, 60 min at 37° C., read-out: IC50 values for inhibition of SGK-1 enzymatic activity
pIC50: −log10 of the molar value.
Label rule, in plain words: pIC50 of 8 and up is Y, under 8 is N.

compound="Cc1n[nH]c2nc(-c3ccc(NS(=O)(=O)c4cc(Cl)ccc4Cl)cc3)nc(OC3CCNCC3F)c12 (stereo not drawn)" target="recombinant human SGK-1 enzyme (Homo sapiens, UniProt O00141)" classification=Y
compound="Cc1ccc(F)c(S(=O)(=O)Nc2ccc(-c3nc(OC4CCNCC4F)c4c(C)n[nH]c4n3)cc2)c1 (stereo not drawn)" target="recombinant human SGK-1 enzyme (Homo sapiens, UniProt O00141)" classification=Y
compound=O=S(=O)(Nc1ccc(-c2nc(N[C@H]3CC[C@@H](O)CC3)c3cn[nH]c3n2)cc1)c1cc(Cl)ccc1Cl target="recombinant human SGK-1 enzyme (Homo sapiens, UniProt O00141)" classification=Y
compound="O=S(=O)(Nc1ccc(-c2nc(O[C@H]3CCCC(O)C3)c3cn[nH]c3n2)cc1)c1cc(Cl)ccc1Cl (stereo partly drawn)" target="recombinant human SGK-1 enzyme (Homo sapiens, UniProt O00141)" classification=Y
compound=CCCOc1nc(-c2ccc(NS(=O)(=O)c3cc(F)c(F)cc3Cl)cc2)cc2[nH]nc(N)c12 target="recombinant human SGK-1 enzyme (Homo sapiens, UniProt O00141)" classification=N
compound=Cc1n[nH]c2nc(-c3ccc(NS(=O)(=O)c4cc(Cl)ccc4F)cc3)nc(OCCCN)c12 target="recombinant human SGK-1 enzyme (Homo sapiens, UniProt O00141)" classification=Y
compound=Cc1ccc(C#N)c(S(=O)(=O)Nc2ccc(-c3nc(CCCCl)c4cn[nH]c4n3)cc2)c1 target="recombinant human SGK-1 enzyme (Homo sapiens, UniProt O00141)" classification=N
compound=COc1ccc(Cl)c(S(=O)(=O)Nc2ccc(-c3nc(OCCCC(N)=O)c4cn[nH]c4n3)cc2)c1 target="recombinant human SGK-1 enzyme (Homo sapiens, UniProt O00141)" classification=Y
compound=Cc1nc(-c2ccc(NS(=O)(=O)c3cc(Cl)ccc3C#N)cc2)nc2[nH]nc(N)c12 target="recombinant human SGK-1 enzyme (Homo sapiens, UniProt O00141)" classification=Y
compound=COc1cc(Oc2nc(-c3ccc(NS(=O)(=O)c4cc(Cl)ccc4Cl)cc3)cc3[nH]nc(C)c23)ccn1 target="recombinant human SGK-1 enzyme (Homo sapiens, UniProt O00141)" classification=N
compound=Nc1n[nH]c2cc(-c3ccc(NS(=O)(=O)c4cccc(Cl)c4F)cc3)nc(C(F)(F)F)c12 target="recombinant human SGK-1 enzyme (Homo sapiens, UniProt O00141)" classification=N
compound="Cc1ccc(F)c(S(=O)(=O)Nc2ccc(-c3nc(OCC4CNC(=O)C4)c4cn[nH]c4n3)cc2)c1 (stereo not drawn)" target="recombinant human SGK-1 enzyme (Homo sapiens, UniProt O00141)" classification=Y
compound=COCCc1nc(-c2ccc(NS(=O)(=O)c3cc(C)ccc3C#N)cc2)nc2[nH]nc(N)c12 target="recombinant human SGK-1 enzyme (Homo sapiens, UniProt O00141)" classification=N
compound="COc1ccc(F)c(S(=O)(=O)Nc2ccc(-c3nc(OCC4CNCCO4)c4cn[nH]c4n3)cc2)c1 (stereo not drawn)" target="recombinant human SGK-1 enzyme (Homo sapiens, UniProt O00141)" classification=Y
compound=CC(C)COc1nc(-c2ccc(NS(=O)(=O)c3cccc(F)c3Cl)cc2)nc2[nH]nc(N)c12 target="recombinant human SGK-1 enzyme (Homo sapiens, UniProt O00141)" classification=N
